measurement notes: Selectivity index, ratio of CC50 for human Huh 5-2 cells to EC50 for HCV
Reported Ratio CC50/EC50 values for a set of compounds

[
  {
    "test smiles": "CC(=O)OC[C@H]1O[C@@H](n2c(SCc3cc4cc(Br)ccc4oc3=O)nc3ccccc32)C[C@@H](OC(C)=O)[C@@H]1OC(C)=O",
    "Ratio CC50/EC50": 4
  },
  {
    "test smiles": "O=c1oc2ccccc2cc1CSc1nc2cccnc2[nH]1",
    "Ratio CC50/EC50": 1.6
  },
  {
    "test smiles": "COc1cccc2cc(CSc3nc4ccccc4[nH]3)c(=O)oc12",
    "Ratio CC50/EC50": 2.8
  },
  {
    "test smiles": "O=c1oc2ccccc2cc1CSc1nc2cc(Cl)c(Cl)cc2[nH]1",
    "Ratio CC50/EC50": 4.9
  },
  {
    "test smiles": "CC(=O)OC[C@H]1O[C@@H](n2c(SCc3ccc([N+](=O)[O-])cc3)nc3ccccc32)[C@H](OC(C)=O)[C@@H](OC(C)=O)[C@@H]1OC(C)=O",
    "Ratio CC50/EC50": 1.3
  },
  {
    "test smiles": "Fc1ccc2[nH]c(SCc3ccncc3)nc2c1",
    "Ratio CC50/EC50": 1.1
  },
  {
    "test smiles": "c1ccc2cc(CSc3nc4ccccc4[nH]3)ccc2c1",
    "Ratio CC50/EC50": 0.73
  },
  {
    "test smiles": "O=c1oc2ccccc2cc1CSc1nc2cncnc2[nH]1",
    "Ratio CC50/EC50": 54
  }
]
